- Measured Target: human OX2R (Homo sapiens (Human), UniProt O43614)
- Sequence (O43614 whole entry): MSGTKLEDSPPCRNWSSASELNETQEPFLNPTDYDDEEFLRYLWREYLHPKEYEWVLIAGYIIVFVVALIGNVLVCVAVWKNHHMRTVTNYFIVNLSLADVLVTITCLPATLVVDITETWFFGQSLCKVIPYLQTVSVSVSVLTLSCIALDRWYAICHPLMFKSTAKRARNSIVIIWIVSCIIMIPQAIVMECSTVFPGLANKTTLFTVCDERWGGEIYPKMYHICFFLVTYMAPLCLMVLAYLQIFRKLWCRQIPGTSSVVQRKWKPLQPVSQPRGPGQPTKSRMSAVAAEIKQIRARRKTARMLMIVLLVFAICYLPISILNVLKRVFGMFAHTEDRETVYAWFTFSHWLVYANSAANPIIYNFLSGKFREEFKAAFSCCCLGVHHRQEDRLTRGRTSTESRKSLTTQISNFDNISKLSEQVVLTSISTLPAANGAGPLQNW
- Test Description: IPOne (IP-1) assay in CHO cells expressing human OX2R
- Type: cell-based
- Reported Conditions: CHO, percentage of mean max effect of a reference compound at 1 uM (100% activity by comparison to Orexin A), human OX2R; read-out: Emax (%)
Value Kind: Emax (%)

INSERT INTO measurements (molecule, value_kind, readout_value) VALUES
  ('COC(=O)N1[C@H](C)C[C@H](NS(=O)(=O)CF)[C@@H]1CO[C@H]1CC[C@@]2(c3ncc(Cl)c(OC)n3)C[C@H]2C1 (single isomer, unassigned)', 'Emax', 101),
  ('COC(=O)N1[C@H](C)C[C@H](NS(=O)(=O)C(F)(F)F)[C@@H]1CO[C@H]1CC[C@@]2(c3ncc(F)cn3)C[C@H]2C1', 'Emax', 101),
  ('COC(=O)N1[C@H](C)C[C@H](NS(C)(=O)=O)[C@@H]1COC1CCC2(c3ncc(C#N)cn3)CC2C1 (mixture of isomers)', 'Emax', 96.9),
  ('COC(=O)N1[C@H](C)C[C@H](NS(=O)(=O)N(C)C)[C@@H]1CO[C@@H]1CC[C@]2(c3ncc(F)cn3)C[C@@H]2C1 (single isomer, unassigned)', 'Emax', 101),
  ('CCS(=O)(=O)N[C@H]1C[C@@H](C(F)F)N(C(=O)OC)[C@H]1CO[C@H]1CC[C@@]2(c3ncc(Cl)cn3)C[C@H]2C1 (single isomer, unassigned)', 'Emax', 98.6);

---

- Measured Target: human OX2R (Homo sapiens (Human))
- Test Description: IPOne (IP-1) assay in CHO cells expressing human OX2R
- Assay type: cell-based
- Reported Conditions: CHO, percentage of mean max effect of a reference compound at 1 uM (100% activity by comparison to Orexin A), human OX2R; read-out: Emax (%)
Value Kind: Emax (%)

INSERT INTO results (compound, readout_value) VALUES
  ('CCC(OC(=O)N1[C@H](C)C[C@H](NS(C)(=O)=O)[C@@H]1CO[C@H]1CC[C@@]2(c3ncc(F)cn3)C[C@H]2C1)C(F)F (stereo partly drawn) [Example 50]', 104),
  ('CC(C)OC(=O)N1[C@H](C)C[C@H](NS(=O)(=O)N(C)C)[C@@H]1CO[C@H]1CC[C@@]2(c3ncccn3)C[C@H]2C1 [Example 171]', 101),
  ('CC(C)OC(=O)N1[C@H](C)C[C@H](NS(C)(=O)=O)[C@@H]1CO[C@H]1CC[C@@]2(c3ncc(Cl)cn3)C[C@H]2C1 (single isomer, unassigned) [Example 151]', 101),
  ('CC(C)OC(=O)N1[C@H](C)C[C@H](NS(=O)(=O)CF)[C@@H]1COC1CCC2(c3ncc(Br)cn3)CC2C1 (single isomer, unassigned) [Example 105]', 91.7),
  ('CC(C)OC(=O)N1[C@H](C)C[C@H](NS(=O)(=O)CF)[C@@H]1CO[C@@H]1CC[C@]2(c3ncc(F)cn3)C[C@@H]2C1 (single isomer, unassigned) [Example 99]', 103),
  ('CC(C)OC(=O)N1[C@H](C)C[C@H](NS(=O)(=O)C(F)F)[C@@H]1CO[C@H]1CC[C@@]2(c3ncc(F)cn3)C[C@H]2C1 (single isomer, unassigned) [Example 90]', 101);
